Where do these numbers come from? They come from patent US20220017615A1.

Molecular target: T1, biotin-labeled CD47 extracellular domain protein (CD47-ECD) (UniProt Q08722 19-139, limits assumed, biotin-labeled (sites not given))
T1 construct: extracellular domain; also called CD47 protein
T1 sequence (Q08722 19-139 limits assumed): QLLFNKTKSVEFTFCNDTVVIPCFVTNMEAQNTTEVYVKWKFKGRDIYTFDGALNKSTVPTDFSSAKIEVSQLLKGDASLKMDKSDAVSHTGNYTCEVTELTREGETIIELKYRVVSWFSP
Experiment: blocking ELISA, biotin-CD47-ECD on coated SIRPα-hFc; Ab 0.0128 nM
Known OD450 nm of CD47 bound to SIRPα of a selection of binders

>  <Binder>
54G8G6 (antibody, V domains shown, Murine hybridoma antibody purified on protein G) VH: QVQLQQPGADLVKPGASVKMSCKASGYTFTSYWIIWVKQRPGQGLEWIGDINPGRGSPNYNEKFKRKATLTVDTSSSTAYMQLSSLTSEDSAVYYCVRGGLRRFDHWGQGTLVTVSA VL: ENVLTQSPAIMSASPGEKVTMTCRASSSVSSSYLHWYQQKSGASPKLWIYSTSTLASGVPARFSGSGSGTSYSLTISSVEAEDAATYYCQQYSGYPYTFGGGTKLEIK

>  <Reported>
2.89

$$$$
>  <Binder>
51E2F11 (antibody, V domains shown, Murine hybridoma antibody purified on protein G) VH: EVQLQQSGAELVKPGASVKLSCTASGFNIKDHYIHWMNQRTEQGLEWIGRIDPDDGETRYAPKFRGKATLTADTSSNTAYLQFSSLTSEDTAVYHCTRATTITRDWYFDVWGTGTTVTVSS VL: DIVMTQSQKFMSTSVGDRVSITCKASQNVRTSVAWYQQKPGQSPKALIYLASNRHTGIPDRFTGSGSGTDFTLTIRNVQSEDLADYFCLQHWDYPLTFGAGTKLELK

>  <Reported>
2.94

$$$$
>  <Binder>
4D10B11 (antibody, V domains shown, Murine hybridoma antibody purified on protein G) VH: QVQLQQSGPELVKPGASVKISCKASGYSFTSYYIHWVKQRPGQGLEWIGWIYPGSGNTKYNEKFKGKATLTADTSSSTADMQLSSLTSEDSAVYYCARRGDWYFDVWGTGTTVTVSS VL: DIVMSQSPSSLVVSVGEKVTMNCKSSQSLLFSGNQKSSLAWYQQKPGQSPKLLIYWASTRESGVPDRFTGSGSGTDFTLIISTVKAEDLAVYSCQQYYSYPLTFGAGTKLELK

>  <Reported>
2.76

$$$$
>  <Binder>
25E3B5 (antibody, V domains shown, Murine hybridoma antibody purified on protein G) VH: QVQLQQPGTALVRPGSSVKLSCKASGYTFTSYWMHWVRQRPIKGLEWIGNIDPSDSETHYNQRFKDKVTLTVDKSSNTAYMQLSSLTSEDSAVYYCARWKYHGIGAMDYWGQGTSVTVSS VL: DVQITQSPSYLAASPGETVTISCRTNRNISKFLAWYQEKPGKTNKLLIYSGSTLHSGIPSRFSGSGSGTDFTLTISRLEPEDFAMYYCQQHNEYPWSFGGGTKLEIK

>  <Reported>
2.79

$$$$
>  <Binder>
95E2D10 (antibody, V domains shown, Murine hybridoma antibody purified on protein G) VH: QIQLQQSGPELVKPGASMKISCKASGYPFTDYYIHWVKQKPGQGLEWIGWIYPGSGNNKYNEKFKGKATLTVDTSPSTVYMQLSSLTSEDTAVYFCARRAGNYFDYWGQGTTLTVSS VL: NIVMTQSPKSMSRSVGERVTLSCRASENVRTYVFWYQQKPGLSPKLLIYGASNRYIGVPDRFTGSGSATDFTLTISSVQAEDLADYHCGQSYSYPLTFGAGTKLELK

>  <Reported>
2.96

$$$$
>  <Binder>
20H4G5 (antibody, V domains shown, Murine hybridoma antibody purified on protein G) VH: QVQLQQPGAELVRPGSSVRLSCVTSGYTFTSHWMHWVKQGPIKGLEWIGNIDPSDSETHYNQKFKDKATLTVDKSSSTAYMQLSRLTSDDSAVYYCARWRHLGIGAMDYWGQGTSVIVSS VL: DVQITQSPSYLAASPGETITINCRASKNISKFLAWYQAKPGKSNNLLIYSGSTLQSGIPSRFSGSGSGTDFTLTISRLEPEDFAMYYCQQHNEYPWTFGGGTKLEIK

>  <Reported>
2.81

$$$$

Query: What does the data say about its OD450 nm of CD47 bound to SIRPα? Entry: 132D1E5 (antibody, V domains shown, Murine hybridoma antibody purified on protein G) VH: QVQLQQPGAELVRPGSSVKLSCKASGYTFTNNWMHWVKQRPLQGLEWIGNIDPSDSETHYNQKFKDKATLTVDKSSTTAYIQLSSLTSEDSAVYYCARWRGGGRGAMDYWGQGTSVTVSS VL: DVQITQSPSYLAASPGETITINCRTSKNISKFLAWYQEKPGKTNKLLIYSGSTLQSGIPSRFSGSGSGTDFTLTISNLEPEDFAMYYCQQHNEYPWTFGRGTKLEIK
Response: 2.92
